- Tested on: P12-Ichikawa
- Experimental Protocol: cell viability relative to DMSO control; higher = less cytotoxic
- Assay Setup: HPLM + 10% dialyzed FBS; 48 h; 0.0632 µM
Parameter: cell viability. Scope: all listed entries.
Readout: cell viability (%)

>>> observed_measurement("O=C(Cc1ccc(-c2ccc(OCCN3CCOCC3)cc2)cn1)NCc1ccccc1")
36.1
>>> observed_measurement("Cc1cnc(C(=O)O)c[n+]1[O-]")
112
>>> observed_measurement("CO/C1=C/C(C)=C\\[C@@H](C)[C@@H](O)[C@@H](C)C/C(C)=C\\C=C/[C@H](OC)[C@@H]([C@@H](C)[C@@H](O)[C@H](C)[C@@]2(O)C[C@@H](O)[C@H](C)[C@@H](C(C)C)O2)OC1=O")
81.7
>>> observed_measurement("COC(=O)C1C2CC3c4[nH]c5cc(OC)ccc5c4CCN3CC2CC(OC(=O)c2cc(OC)c(OC)c(OC)c2)C1OC (centres undefined)")
115
>>> observed_measurement("C[C@]12CC[C@H]3[C@@H](C\\C=C/4C[C@@H](O)CC[C@]34C)[C@@H]1CCC2=O")
110
>>> observed_measurement("Nc1nc(N)c2nc(-c3cccc(O)c3)c(-c3cccc(O)c3)nc2n1")
120
>>> observed_measurement("Cc1cc(Nc2nc(N[C@@H](C)c3ccc(F)cc3)c(C#N)cc2F)n[nH]1")
102
>>> observed_measurement("NC(=O)c1cccc2nc(-c3ccc([C@H]4CCCN4)cc3F)[nH]c12")
115
>>> observed_measurement("COC1=CC=C(C=C1O)C/2=C/C(=O)C3=C(O2)C=C(O)C=C3O")
95.2
>>> observed_measurement("COc1ccc2c(c1)c(CC(=O)OCC(=O)O)c(C)n2C(=O)c1ccc(Cl)cc1")
116
>>> observed_measurement("COc1ccc2[nH]c([S+]([O-])Cc3ncc(C)c(OC)c3C)nc2c1 (centres undefined)")
91.6
>>> observed_measurement("CCC\\C1=C\\C(=O)NC(=S)N1")
120
>>> observed_measurement("CC(C)c1cnn2c(NCc3ccccc3)cc(NCCCCCCN)nc12")
122
>>> observed_measurement("Cc1ccc([S+](=O)([O-])Nc2nc3ccccc3nc2Nc2ccc3nsnc3c2)cc1")
115
>>> observed_measurement("C[S+](=O)([O-])c1cccc(CNc2nc(Nc3ccc4c(c3)CCC(=O)N4)ncc2C(F)(F)F)c1")
110
>>> observed_measurement("COCCOc1nc(-c2ccc(Cl)c(Cl)c2)n(-c2ccc(NC(=O)CCl)cc2)n1")
103
>>> observed_measurement("COC1=CC=CC(=C1N)\\C2=C\\C(=O)C3=C(O2)C=CC=C3")
128
>>> observed_measurement("CN1CCC[C@@H]1CCO[C@](C)(c1ccccc1)c1ccc(Cl)cc1")
105
>>> observed_measurement("ClC1=CC\\2=C(OC3=C(C=CC=C3)\\N=C2N4CCNCC4)C=C1")
109
>>> observed_measurement("N[S+](=O)([O-])c1cccc2c1C(=O)c1cccc(O)c1C2=O")
121
>>> observed_measurement("O=C\\1N(N\\C=C1[N]2C=CN=N2)C3=NC=NC(=C3)N4CCOCC4")
56.6
>>> observed_measurement("Nc1ncnc2ccccc12")
106
>>> observed_measurement("O=C(O)/C=C/c1ccc(O)c(O)c1")
110
>>> observed_measurement("CC[C@H](C)C(=O)O[C@H]1C[C@H](O)\\C=C2\\C=C/[C@H](C)[C@H](CC[C@@H](O)C[C@@H](O)CC(O)=O)[C@@H]12")
111

* * *

- System: SEM cells
- Experimental Protocol: cell viability relative to DMSO control; higher = less cytotoxic
- Assay Setup: HPLM + 10% dialyzed FBS; 48 h; 0.569 µM
Readout: cell viability (%)

>>> observed_measurement("CCO[C@@H]1OC(=O)C[C@@H]1NC(=O)[C@@H]1CCCN1C(=O)[C@@H](NC(=O)c1ccc(N)c(Cl)c1)C(C)(C)C")
119
>>> observed_measurement("CN(C)CCCN1c2ccccc2CCc2ccc(Cl)cc21")
125
>>> observed_measurement("O=C(O)COCCN1CCN(C(c2ccccc2)c2ccc(Cl)cc2)CC1 (stereo not given)")
128
>>> observed_measurement("CN1\\N=C(N)/C2=C[N]([C@@H]3O[C@H](CO[P](O)(O)=O)[C@@H](O)[C@H]3O)C4=C2C1=NC=N4")
13.2
>>> observed_measurement("Nc1cccc2c1CN([C@H]1CCC(=O)NC1=O)C2=O")
103

* * *

Parameter: cell viability. Scope: all listed entries.
- Test system: NOMO1
- Experimental Protocol: cell viability relative to DMSO control; higher = less cytotoxic
- Assay Setup: RPMI 5 mM glucose + 10% FBS; 48 h; 46.1 µM
Readout: cell viability (%)

>>> observed_measurement("CC(C)C[C@H](NC(=O)CNC(=O)c1cc(Cl)ccc1Cl)B(O)O")
2.67
>>> observed_measurement("CC1(N2CCC(n3c([C@@H]4CCCNC4)nc4ccccc43)CC2)CCCCCCC1")
53.5
>>> observed_measurement("CNC[C@H](O)c1cccc(O)c1")
99

* * *

- Test system: P12-Ichikawa
- Experimental Protocol: cell viability relative to DMSO control; higher = less cytotoxic
- Assay Setup: RPMI 5 mM glucose + 10% FBS; 48 h; 0.19 µM
Readout: cell viability (%)

>>> observed_measurement("CN(C)c1nc(Cc2ccc(NC(=O)c3ccc4ccccc4c3)cc2)nc(Cl)c1CC(=O)O")
114
>>> observed_measurement("CCC\\C1=C\\C(=O)NC(=S)N1")
112
>>> observed_measurement("ClC1=CC\\2=C(NC(=O)\\C(=C2N[C@@H]3CN4CCC3CC4)C5=NC6=C([NH]5)C=CC=C6)C=C1")
55.9
>>> observed_measurement("CC(C)c1cc(C(=O)N2Cc3ccc(CN4CCN(C)CC4)cc3C2)c(O)cc1O")
97.7
>>> observed_measurement("Nc1nnc(-c2cccc(Cl)c2Cl)c(N)n1")
106
>>> observed_measurement("COc1ccc2[nH]c([S+]([O-])Cc3ncc(C)c(OC)c3C)nc2c1 (centres undefined)")
78
>>> observed_measurement("C=CC(=O)Nc1cccc(Nc2nc(NC3CCC(N(C)C)CC3)nc3c2ncn3C(C)C)c1 (centres undefined)")
112
>>> observed_measurement("CCN(C(=O)C/1=C(O)/C2=C(C=CC=C2Cl)N(C)C1=O)C3=CC=CC=C3")
77.5
>>> observed_measurement("C[S+](=O)([O-])c1cccc(CNc2nc(Nc3ccc4c(c3)CCC(=O)N4)ncc2C(F)(F)F)c1")
111

* * *

- System: SEM cells
- Experimental Protocol: cell viability relative to DMSO control; higher = less cytotoxic
- Assay Setup: RPMI 5 mM glucose + 10% FBS; 48 h; 5.12 µM
Readout: cell viability

>>> observed_measurement("O=C(O)COCCN1CCN(C(c2ccccc2)c2ccc(Cl)cc2)CC1 (centres undefined)")
"113%"
>>> observed_measurement("O=C1Nc2ccc(I)cc2/C1=C/c1cc(Br)c(O)c(Br)c1")
"108%"
>>> observed_measurement("Cc1[nH]c(/C=C2\\C(=O)Nc3ccccc32)c(C)c1CCC(=O)O")
"39.1%"
>>> observed_measurement("C[C@]12CC[C@@H]3c4ccc(O)cc4CC[C@H]3[C@@H]1C[C@@H](O)[C@@H]2O")
"90.9%"
>>> observed_measurement("CCC(=O)N[C@H]1CC[C@H](C(=O)N(C)c2ccc(-c3nc4ccccc4o3)cc2)C1")
"74.7%"
>>> observed_measurement("NC(=O)c1cccc2cn(-c3ccc([C@@H]4CCCNC4)cc3)nc12")
"120%"
>>> observed_measurement("CC(C)c1cnn2c(NCc3ccccc3)cc(NCCCCCCN)nc12")
"88.2%"
>>> observed_measurement("C[C@]12CC[C@H]3[C@@H](CCC/4=C/C(=O)CC[C@]34C)[C@@H]1CC[C@@H]2O")
"140%"
>>> observed_measurement("CC(O)(C#Cc1ccc2c(c1)N(c1nc(N)ncc1Cl)CC2)c1nccs1 (centres undefined)")
"102%"
>>> observed_measurement("C[S+](=O)([O-])c1cccc(CNc2nc(Nc3ccc4c(c3)CCC(=O)N4)ncc2C(F)(F)F)c1")
"63.1%"
>>> observed_measurement("CN(C)c1nc(Cc2ccc(NC(=O)c3ccc4ccccc4c3)cc2)nc(Cl)c1CC(=O)O")
"107%"
>>> observed_measurement("NC(=O)C1CCCc2c1[nH]c1ccc(Cl)cc21 (centres undefined)")
"63.3%"
>>> observed_measurement("c1ccc(CNc2nc(N3CCOc4ccccc43)nc3c2CCCC3)cc1")
"91.4%"
>>> observed_measurement("C=CC(=O)Nc1cccc(Nc2nc(NC3CCC(N(C)C)CC3)nc3c2ncn3C(C)C)c1 (centres undefined)")
"10.8%"
>>> observed_measurement("Cc1ccc([S+](=O)([O-])Nc2nc3ccccc3nc2Nc2ccc3nsnc3c2)cc1")
"78.7%"
>>> observed_measurement("CN1CCC[C@@H]1CCO[C@](C)(c1ccccc1)c1ccc(Cl)cc1")
"124%"
>>> observed_measurement("C/C(O)=C(\\C#N)C(=O)Nc1cc(Br)ccc1Br")
"106%"
>>> observed_measurement("COc1ccc(Nc2nccc(NCCO)n2)cc1")
"42.1%"
>>> observed_measurement("COc1ccc2c(c1)c(CC(=O)OCC(=O)O)c(C)n2C(=O)c1ccc(Cl)cc1")
"113%"
>>> observed_measurement("Cn1cc(/C=C2\\C(=O)Nc3cccnc32)c2ccccc21")
"98.4%"
>>> observed_measurement("COCCOc1nc(-c2ccc(Cl)c(Cl)c2)n(-c2ccc(NC(=O)CCl)cc2)n1")
"83.4%"
>>> observed_measurement("COC(=O)C1C2CC3c4[nH]c5cc(OC)ccc5c4CCN3CC2CC(OC(=O)c2cc(OC)c(OC)c(OC)c2)C1OC (centres undefined)")
"94.8%"
>>> observed_measurement("O=C\\1N(N\\C=C1[N]2C=CN=N2)C3=NC=NC(=C3)N4CCOCC4")
"19.2%"
>>> observed_measurement("Nc1cc(C(F)(F)F)c(-c2cc(N3CCOCC3)nc(N3CCOCC3)n2)cn1")
"6.68%"
>>> observed_measurement("Cn1c(=O)n(-c2ccc(C(C)(C)C#N)cc2)c2c3cc(-c4cnc5ccccc5c4)ccc3ncc21")
"8.98%"
>>> observed_measurement("O=C(Nc1ncc(-c2cc(C(F)F)nn2-c2c(Cl)cccc2Cl)s1)C1CC1")
"14.8%"
>>> observed_measurement("Oc1cccc(-c2nc(N3CCOCC3)c3oc4ncccc4c3n2)c1")
"8.23%"
>>> observed_measurement("O=C(Nc1ncc(SCCN2CCCC2)s1)[C@]1(c2ccc([S+](=O)([O-])C3CC3)cc2)C[C@H]1C1CCCCC1")
"123%"
>>> observed_measurement("C[S+](=O)([O-])c1ccc(C(=O)Nc2ccc(Cl)c(-c3ccccn3)c2)c(Cl)c1")
"153%"
